The values you see were collected from ChEMBL document CHEMBL5365510.

Test: Tmax in Sprague-Dawley rat at 5 mg/kg, po measured after 24 hrs by LC/MS/MS analysis
Assay type: ADME, organism-based
Conditions: in vivo
experimental-endpoint: Tmax (h)
Supply the numeric figure in h, leaving out any unit text.

Q) Identify the reported Tmax for the following entry. `CCOc1ccn(-c2ccc(F)cc2)c(=O)c1C(=O)Nc1ccc(Oc2ccnc3cc(-c4ccc(CN5CCOCC5)cn4)sc23)c(F)c1`
A) 1

Q) Identify the reported Tmax for the following entry. `CCOc1ccn(-c2ccc(F)cc2)c(=O)c1C(=O)Nc1ccc(Oc2ccnc3cc(-c4cn(C)cn4)sc23)c(F)c1`
A) 2.67

###

Experiment: Cmax in Sprague-Dawley rat at 5 mg/kg, po measured after 24 hrs by LC/MS/MS analysis
Type: ADME, organism-based
Design: dose 5 mg/kg, time 24 hrs, route po
Settings: in vivo
Record form. Attribute: Cmax. Fill in for each entry.
Supply the numeric figure in ng/mL, leaving out any unit text.

Q) Identify the reported Cmax for the following entry. `CCOc1ccn(-c2ccc(F)cc2)c(=O)c1C(=O)Nc1ccc(Oc2ccnc3cc(-c4cn(C)cn4)sc23)c(F)c1`
A) 810

Q) Identify the reported Cmax for the following entry. `CCOc1ccn(-c2ccc(F)cc2)c(=O)c1C(=O)Nc1ccc(Oc2ccnc3cc(-c4ccc(CN5CCOCC5)cn4)sc23)c(F)c1`
A) 2020

###

experimental-endpoint: pIC50
API: returns pIC50 as number; meaning -log10 of concentration in mol/L.

Q) Answer with pIC50 of `COc1ccc2c(Oc3ccc(NC(=O)c4c(C)n(CC(C)(C)O)n(-c5ccccc5)c4=O)cc3F)ccnc2c1` measured for UniProt:P08581.
Sequence (P08581 whole entry): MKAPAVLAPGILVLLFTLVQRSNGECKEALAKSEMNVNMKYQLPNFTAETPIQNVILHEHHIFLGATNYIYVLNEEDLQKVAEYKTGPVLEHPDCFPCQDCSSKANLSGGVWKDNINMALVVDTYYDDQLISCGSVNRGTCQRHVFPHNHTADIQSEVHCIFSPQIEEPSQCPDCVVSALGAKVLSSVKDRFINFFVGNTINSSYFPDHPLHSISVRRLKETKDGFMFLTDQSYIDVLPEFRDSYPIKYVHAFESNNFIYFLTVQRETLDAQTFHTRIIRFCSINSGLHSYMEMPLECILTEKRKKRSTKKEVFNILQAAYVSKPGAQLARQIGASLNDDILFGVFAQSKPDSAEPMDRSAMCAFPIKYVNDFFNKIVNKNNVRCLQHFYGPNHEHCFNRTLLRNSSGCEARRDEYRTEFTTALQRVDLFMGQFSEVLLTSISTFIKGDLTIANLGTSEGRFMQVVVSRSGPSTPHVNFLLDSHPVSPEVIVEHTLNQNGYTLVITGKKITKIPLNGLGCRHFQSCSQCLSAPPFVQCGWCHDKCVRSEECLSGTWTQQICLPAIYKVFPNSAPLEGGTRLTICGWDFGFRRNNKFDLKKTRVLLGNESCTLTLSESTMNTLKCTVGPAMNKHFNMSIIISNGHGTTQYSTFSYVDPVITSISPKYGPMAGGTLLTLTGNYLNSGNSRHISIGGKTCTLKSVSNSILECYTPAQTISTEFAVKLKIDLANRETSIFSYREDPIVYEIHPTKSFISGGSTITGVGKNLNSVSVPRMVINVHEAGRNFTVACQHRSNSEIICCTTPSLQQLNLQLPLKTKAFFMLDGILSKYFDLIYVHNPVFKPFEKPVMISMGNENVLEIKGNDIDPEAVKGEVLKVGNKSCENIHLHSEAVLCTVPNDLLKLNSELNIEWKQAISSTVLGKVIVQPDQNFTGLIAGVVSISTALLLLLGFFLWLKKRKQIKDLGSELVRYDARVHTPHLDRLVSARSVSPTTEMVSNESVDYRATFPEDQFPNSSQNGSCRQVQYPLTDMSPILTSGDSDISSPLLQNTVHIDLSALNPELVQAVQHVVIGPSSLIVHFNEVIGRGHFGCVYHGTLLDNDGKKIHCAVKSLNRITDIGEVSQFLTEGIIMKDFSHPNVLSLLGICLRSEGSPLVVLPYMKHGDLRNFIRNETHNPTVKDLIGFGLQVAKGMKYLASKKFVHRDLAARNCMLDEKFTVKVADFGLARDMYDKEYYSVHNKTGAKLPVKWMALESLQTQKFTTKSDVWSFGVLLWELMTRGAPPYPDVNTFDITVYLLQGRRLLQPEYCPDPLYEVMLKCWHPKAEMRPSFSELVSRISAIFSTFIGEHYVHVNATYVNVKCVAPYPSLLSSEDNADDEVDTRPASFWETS
A) 8.05

###

Tested on: KM12C
Experiment: Antiproliferative activity against human KM12-C cells harbouring wild-type KRAS and RON delta 160 assessed as cell growth inhibition measured after 72 hrs by MTS assay
Type: functional
# note: boundary value 30 nM maps to NOT MET; GI50 below it maps to MET

Q) Given the entry CN1CCC(Oc2ccn(-c3ccc(F)cc3)c(=O)c2C(=O)Nc2ccc(Oc3ccnc4cc(-c5ccc(CN6CCOCC6)cn5)sc34)c(F)c2)C1 (configuration not stated) , would its reported GI50 be below 30 nM?
A) NOT MET

Q) Given the entry CCOc1ccn(-c2ccc(F)cc2)c(=O)c1C(=O)Nc1ccc(Oc2ccnc3cc(-c4ccc(CN5CCC(F)C5)cn4)sc23)c(F)c1 (configuration not stated) , would its reported GI50 be below 30 nM?
A) MET

Q) Given the entry `CCOc1ccn(-c2ccc(F)cc2)c(=O)c1C(=O)Nc1ccc(Oc2ccnc3cc(-c4ccc(CN5CCOCC5)cn4)sc23)c(Cl)c1` , would its reported GI50 be below 30 nM?
A) MET

Q) Given the entry `CCOc1ccn(-c2ccc(F)cc2)c(=O)c1C(=O)Nc1ccc(Oc2ccnc3cc(-c4ccc(CN5CCC(F)(F)CC5)cn4)sc23)c(F)c1` , would its reported GI50 be below 30 nM?
A) MET

Q) Given the entry `CCOc1ccn(-c2ccc(F)cc2)c(=O)c1C(=O)Nc1ccc(Oc2ccnc3cc(-c4ccc(CN5CCOCC5)cn4)sc23)c(F)c1` , would its reported GI50 be below 30 nM?
A) MET

Q) Given the entry CCOc1ccn(-c2ccc(F)cc2)c(=O)c1C(=O)Nc1ccc(Oc2ccnc3cc(-c4ccc(CN5CCC(OC)C5)cn4)sc23)c(F)c1 (configuration not stated) , would its reported GI50 be below 30 nM?
A) MET

Q) Given the entry `CCOc1ccn(-c2ccc(F)cc2)c(=O)c1C(=O)Nc1ccc(Oc2ccnc(N)c2Cl)c(F)c1` , would its reported GI50 be below 30 nM?
A) NOT MET
